Numbers sourced from paper doi:10.1101/2025.06.05.658000.

target: HLA-DR (DRA1*01:01 / DRB1*13:02), soluble knob-into-hole Fc heterodimer (human); test: ELISA
No end group written: not given here.
measurement-kind: Kd (µM)
Give bare numbers, in µM.

// returns reported Kd for input KPVSKMRMATPLLMQALPM (also: biotin-labeled) [biotin-labeled human Class II-associated Invariant Chain Peptide (Bio-CLIP)] 4.13
